Assayed target: human ether-à-go-go-related gene (hERG) potassium channel (human);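 note: peak tail current of the secondary pulse compared with the same well before compound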
Sequence (Q12809 whole entry, looked up): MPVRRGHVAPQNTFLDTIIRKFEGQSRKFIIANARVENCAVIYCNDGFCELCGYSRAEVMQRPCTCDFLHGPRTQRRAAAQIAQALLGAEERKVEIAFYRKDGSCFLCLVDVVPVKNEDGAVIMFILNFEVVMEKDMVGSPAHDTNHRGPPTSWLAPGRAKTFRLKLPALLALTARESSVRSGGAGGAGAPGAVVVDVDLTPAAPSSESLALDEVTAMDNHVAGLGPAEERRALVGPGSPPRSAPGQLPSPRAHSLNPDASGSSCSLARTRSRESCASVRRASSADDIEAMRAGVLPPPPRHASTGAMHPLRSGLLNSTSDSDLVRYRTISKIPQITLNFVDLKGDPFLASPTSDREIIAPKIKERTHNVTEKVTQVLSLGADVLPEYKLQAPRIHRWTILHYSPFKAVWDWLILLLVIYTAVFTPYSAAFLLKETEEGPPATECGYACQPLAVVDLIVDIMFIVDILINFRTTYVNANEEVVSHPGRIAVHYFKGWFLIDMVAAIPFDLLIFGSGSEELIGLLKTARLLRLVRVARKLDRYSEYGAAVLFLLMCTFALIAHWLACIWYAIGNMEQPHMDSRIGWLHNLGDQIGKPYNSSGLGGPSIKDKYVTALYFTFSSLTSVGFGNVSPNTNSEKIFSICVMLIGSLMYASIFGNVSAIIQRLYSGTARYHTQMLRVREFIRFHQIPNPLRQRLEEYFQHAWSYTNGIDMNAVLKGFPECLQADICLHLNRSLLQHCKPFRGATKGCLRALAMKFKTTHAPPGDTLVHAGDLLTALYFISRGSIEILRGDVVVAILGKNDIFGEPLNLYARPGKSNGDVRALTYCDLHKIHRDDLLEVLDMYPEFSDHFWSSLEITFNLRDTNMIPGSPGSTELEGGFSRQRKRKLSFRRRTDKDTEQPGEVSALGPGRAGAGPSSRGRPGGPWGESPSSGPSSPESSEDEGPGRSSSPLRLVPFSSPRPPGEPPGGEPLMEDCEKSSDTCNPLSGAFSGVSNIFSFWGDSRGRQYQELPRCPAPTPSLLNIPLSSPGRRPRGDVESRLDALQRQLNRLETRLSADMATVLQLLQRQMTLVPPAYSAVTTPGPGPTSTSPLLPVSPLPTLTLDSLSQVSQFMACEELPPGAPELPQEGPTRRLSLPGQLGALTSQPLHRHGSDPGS
Protocol notes: primary screen, population patch clamp on CHO cells stably expressing hERG; higher = less effect of the substance
Experimental: Briefly, Chinese hamster ovary (CHO) cells stably expressing the hERG channel were dislodged from tissue culture flasks and dispensed into PPC plates. […] During the recording, background leak currents were estimated by a 100 ms step to -80 mV from an initial holding potential of -70 mV and subtracted from the subsequent current measurement. The campaign was conducted in two phases using slight differences in recording protocol. […]
Out of some 310,000 compounds screened, about 14,000 (4.5%) showed an effect of 50% or more. The effect is printed as a negative number. The list comes from a sample in which strong results are over-represented; it also holds close analogues and randomly drawn compounds.
Rule: hERG current change (%, negative = inhibition) at 10uM of -40% or more gives true (1); anything lower gives false (0).

These recorded examples may help you get a feel for the data.
Cc1cc(C)n(C(C)CC(=O)Nc2ccc3c(c2)OCO3)n1 (centres unmarked) = true (1)
CCC1CCCCN1CCCNC(=O)Cn1ncn2nc(-c3ccc(OC)cc3)cc2c1=O (centres unmarked) = false (0)

Continue with the next compound.
Form field: hERG current change (%, negative = inhibition) at 10uM at least -40%? Entry: "COc1ccc(-c2cc3c(=O)n(CC(=O)NCCCN4CCN(Cc5ccccc5)CC4)ncn3n2)cc1" false (0)

This collection of values is drawn from paper PMC4336329.
